quantity: melting point

Request the reported melting point associated with CN1CC2CC1CN2C1=Nc2cc(Cl)ccc2Sc2ccccc21 (stereo not given)
62 to 64 °C

Thanks! And O=C(O)CSCCCCCCNS(=O)(=O)c1ccc(Cl)cc1 ?
104 to 105 °C

Thanks! And Cc1ccc(-c2cccs2)cc1C ?
49 to 51 °C

Thanks! And NC(=O)CNC(=O)c1cccc(-c2cccc3cc(CCc4cccc(C(F)(F)F)c4)sc23)c1 ?
153 to 154 °C

Thanks! And CC1(C)[C@@H](CNc2ccc(C(F)(F)F)cn2)CC[C@@]1(C)NCC(=O)N1C[C@@H](F)C[C@H]1C#N ?
52 to 58 °C

Thanks! And Cc1nc(C(F)(F)F)ccc1C(=O)C1=C(S(=O)(=O)c2ccccc2)CCCC1=O ?
165 to 167 °C

Thanks! And O=C(Nc1cccc(C(F)(F)F)c1)c1ccccc1[N+](=O)[O-] ?
134 to 135 °C

Thanks! And O=[N+]([O-])c1ccccc1C(Cl)Cl ?
25.6 to 26.7 °C

Thanks! And CCCn1c(=O)c2c(nc(/C=C/c3ccc(OC)cc3)n2C)n(CCC)c1=O ?
160 to 161 °C

Thanks! And CC(C)C(=O)C1(S(=O)(=O)c2ccc(O)cc2)CC1 ?
111 to 112 °C
